The binders listed here are annotated with their sVNT SARS-CoV-1 (% I).
# Test target: SARS-CoV-1 RBD (SARS-CoV)
# Protocol summary: sVNT, cPass kit format with SARS-CoV-1 RBD-HRP; HEK293 supernatant

Binder | sVNT SARS-CoV-1 (% I)
Antibody 2 (SS6V2-G1) (antibody, V domains shown) VH: EVQLVESGGGLVQPGGSLRLSCAASGFTVSSNYMSWVRQAPGKGLEWVSVIYSGGSTFYADSVKGRFTISRDNSKNTLYLQMNSLRAEDTAVYYCARELRHYFDYWGQGTLVTVSS VL: DIQLTQSPSFLSASVGDRVTITCRASQGISSYLAWYQQKPGKAPKLLIYAASTLQSGVPSRFSGSGSGTEFTLTISSLQPEDFATYYCQQLNSYPPYSFGQGTKVEIK | 1.35%
Antibody 8 (SS6V8-D3) (antibody, V domains shown) VH: EVQLVESGGDLVQPGGSLRLSCSASGFTFSTYAMHWVRQAPGKGLDYVASIASDGGITTYADSVKGRFTISRDNSKNALYLQMSSLRVEDTAVYYCVKDSLTSVTTIFDCWGQGTLVTVSS VL: DIQMTQSPSSLSASVGDSVTITCRASQNINSYLHWYQQKPGKAPKLLIYTASSLQSGVPSRFSASGSGTHFTLTISSLQPEDFATYYCQQSYTDPYTFGQGSKVEIK | 36.1%
Antibody 18 (SS6V18-E3) (antibody, V domains shown) VH: EVQLVESGGGLVQPGGSLRLSCAASGFTFSSYAMHWVRQVPGKGLEYVSSITSNGGGTFYADSVKGRFTISRDNSKNTVYLQMGSLSTEDMALYYCAREGIQGWVTYFDYWGRGILVTVSS VL: DIQMTQSPSSLSASIGDRVTITCRASQSISTNLNWYQQKPGKAPKLLIYAASSLPSGVPSRFSGSGSGTDFTLTISSLQPEDFANYLCQQTYTTPQYSFGQGTKVEIK | 43.7%
Antibody 19 (SS6V19-F4) (antibody, V domains shown) VH: EVQLVQSGSELKKPGASVKVSCKVSGYTFTDYNMNWVRQAPGQGLEWMGWINTNTGIPTYAQGFTGRFVFSLDTSVSTAYLQISSLKAEDTAIYYCARDGGWQLPYWYFDLWGRGTLVTVSS VL: EIVMTQSPATLSVSPGERVTLSCRASYSFSSSLAWYQQKPGQAPRLLIYGTSTRATGVPVRFSGSGSGTEFTLTISSLQSEDLAVYYCQQYYSWPLTFGQGTKVDIK | 61.2%
Antibody 9 (SS6V9-D11) (antibody, V domains shown) VH: QVQLQESGPGLVKPSGTLSLTCAVSGGSISSNIWWSWVRQPPGKGLEWIGDIYHSGSTNYNPSLEGRVTISIDKSKNQFSLRLTSLTAADTAVYYCARAISQQYFDSSVLGYWGQGILVTVSS VL: EIVMTQSPATLSVSPGERVTLSCRASQSVVTNLAWYQQKPGQAPRLLIYGASTRATGIPARFSGSGSGTEFTLTISSLQSEDFAIYHCQQYNNWPGYTFGQGTKVDIK | 45.2%
